Each record here notes measured IL-8, cross-linked by F(ab')2 fragment [abs. corr.].
- Assayed System: T1, CD27 expressed on the cell surface (HT1080_CD27 cells) (human, UniProt P26842 20-260); note: test concentration or dose not given here
- T1 sequence (looked up): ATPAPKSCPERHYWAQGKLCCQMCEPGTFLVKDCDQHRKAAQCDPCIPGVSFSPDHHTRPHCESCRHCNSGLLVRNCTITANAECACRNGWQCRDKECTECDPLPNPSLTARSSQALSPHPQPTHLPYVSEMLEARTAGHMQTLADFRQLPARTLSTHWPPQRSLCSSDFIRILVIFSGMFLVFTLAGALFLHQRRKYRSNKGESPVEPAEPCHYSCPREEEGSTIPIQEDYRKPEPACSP
- Procedure Details: cell-based or functional assay
Write the answer as a number in abs. corr., unit excluded.

Binder	Reported Value
P018.S.09.A.A05 (antibody, V domains shown, V regions on human Ig constant parts; also called AB27_145) VH: QSVEESGGRLVTPGTPLTLTCTVSGFSLSSYAMSWVRQAPGKGLEWIGYIWSGGTTDYASWAKGRFTISKTSTTVDLKITDPTTEDTATYFCARGLGDRGSSDYYMPLKLWGQGTLVTVSS VL: AAVLTQTPSPVSAAVGGTVTINCQASEDIESYLAWYQQKPGQPPKLLIYSTSNLASGVSSRFRGSGSGTQLTLTISDLESADAATYYCQCTYDGSSAVWGAFGGGTEVVVK	1.95

get_value(item= P018.S.01.A.H02 (antibody, V domains shown, V regions on human Ig constant parts; also called AB27_25) VH: QSVEESGGRLVTPGTPLTLTCTASGFSLSSYHMQWVRQAPGKGLEWIGIIYAGSGNTWYASWAKGRFTISKTSTTVDLKITSPTTEDTAAYFCARQPGGDASDTQLDLWGQGTLVTVSS VL: AAVLTQTASPVSAAVGGTVTINCQSSQSVFDHNQLSWFQHKPGQSPKLLIYRASTLASGVPSRFKGSGSGTQFTLTISDVQSDDAATYYCLGGYSSSSDTVFGGGTEVVVK , readout=IL-8, cross-linked by F(ab')2 fragment [abs. corr.]) returns 2.54

get_value(item= P018.S.05.A.H02 (antibody, V domains shown, V regions on human Ig constant parts; also called AB27_94) VH: QEQLEESGGRLVTPGGTLTLTCTASGFSLNSYDMSWVRQAPGKGLEWIGYIWSDGNTDYASWAAGRFTASRASTTVDLKMTSLTTEDTATYFCARGYTGFFLWGPGTLVTVSS VL: DVVMTQTPSSVSAAVGGTVTIKCQASQSIGSSYLSWYQQKPGQPPKLLIYEASTLASGVPSRFKGSGSGTEFTLTISDLESDDAATYYCQCTYYGGSWRVAFGGGTEVVVK , readout=IL-8, cross-linked by F(ab')2 fragment [abs. corr.]) returns 1.9

get_value(item= P018.S.03.A.F03 (antibody, V domains shown, V regions on human Ig constant parts; also called AB27_54) VH: QSLEESGGRLVTPGGSLTLTCTVSGIDLSSYAMGWVRQAPGKGLEYLGIIYTSNRTHYATWAKGRFTISKTSSTTVDLKATSLTTEDTATYFCGRYGRGSGGYYYGMDLWGPGTLVTVSS VL: DIVMTQTPASVEAAVGGTVTIKCQASQSGDDYCSWYQQKPGQRPKLLIYAASTLASGVPSRFRGSRSGTEYTLTISDLESADAATYYCQNYCAGSGVCLGVAFGGGTEVVVK , readout=IL-8, cross-linked by F(ab')2 fragment [abs. corr.]) returns 1.35

get_value(item= P018.S.06.A.C03 (antibody, V domains shown, V regions on human Ig constant parts; also called AB27_101) VH: QSLEESGGGLFQPGGSLTLTCKASGLDFSTNYYMCWVRQAPGKGLELIACISTSSGNTWYASWAKGRFTISKTSSTTVTLQMTSLTAADTATYFCARCDIVYVGYGYASRLDLWGQGTLVTVSS VL: AQVLTQTPSPVSAAVGGTVTINCQASESVYNNNNLAWYQQKPGQPPKFLIYGASSLASGVPSRFKGSGSGTQFTLTISDLESDDAATYYCAGGGSTSVGAFGGGTEVVVK , readout=IL-8, cross-linked by F(ab')2 fragment [abs. corr.]) returns 1.13

Where do these numbers come from? They come from patent US20210253725A1.
